Molecular target: HPV-11 E2 (full length) (Human papillomavirus type 11, UniProt P04015 1-367)
Sequence (P04015 whole entry): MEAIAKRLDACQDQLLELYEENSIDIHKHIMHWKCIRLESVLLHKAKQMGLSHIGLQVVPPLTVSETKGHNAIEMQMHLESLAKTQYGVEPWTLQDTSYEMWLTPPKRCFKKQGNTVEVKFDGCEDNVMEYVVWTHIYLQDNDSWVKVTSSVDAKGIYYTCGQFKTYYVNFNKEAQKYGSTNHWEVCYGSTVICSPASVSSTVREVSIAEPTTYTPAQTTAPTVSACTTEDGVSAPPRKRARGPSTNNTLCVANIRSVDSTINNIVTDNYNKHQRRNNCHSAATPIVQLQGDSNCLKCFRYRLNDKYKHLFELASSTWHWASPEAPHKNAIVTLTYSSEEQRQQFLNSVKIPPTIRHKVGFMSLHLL
Test: EMSA; apparent Kd; EMSA: 10 mM HEPES pH 7.9, 50 mM NaCl, 4 mM MgCl2, 10% glycerol, 5 mM DTT, 0.2 mM EDTA, 0.1 mg/mL BSA, 10 ng/uL poly(dI-dC), 10 min 30 C
Conditions: protein: recombinant; tags: N-terminal His (pET28a); chain copies: 2; label: 32P
attribute.measured: Kd

Task item: Please indicate Kd recorded for BS4 (dsDNA) DNA 1: CTTGCAACCGTTTTCGGTTGCCCT DNA 2: AGGGCAACCGAAAACGGTTGCAAG
Reply: 4.8 nM

Task item: Please indicate Kd recorded for BS2 (dsDNA) DNA 1: GGAGGGACCGAAAACGGTTCAACC DNA 2: GGTTGAACCGTTTTCGGTCCCTCC
Reply: 7.8 nM

Task item: Please indicate Kd recorded for BS1 (dsDNA) DNA 1: GGTTCAACCGAAAACGGTTATATG DNA 2: CATATAACCGTTTTCGGTTGAACC
Reply: 6.2 nM

Task item: Please indicate Kd recorded for BS3 (dsDNA) DNA 1: CCTGCAACCGGTTTCGGTTACCCA DNA 2: TGGGTAACCGAAACCGGTTGCAGG
Reply: 10.2 nM

Source listed as paper PMC10095481.
